System: EfPiwi piRISC loaded with piRNA #1 (26 nt)
EXPERIMENT_DESCRIPTION: pre-steady-state target cleavage rate (min^-1); auxiliary factor: 500 nM Ephydatia muelleri Gtsf1; guide: piRNA #1 5'p-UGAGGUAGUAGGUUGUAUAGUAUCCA; higher = faster piRNA-guided slicing of the target
Given measured pre-steady-state target cleavage rate, output YES if it is greater than or equal to 0.005 and NO if not.

CHAIN_SEQUENCE	CLASS_NAME
GGAGACCAUACUAUACAACCUACUACCCA	NO
GGAGUGGAUACUAUACUACCUACUACCUCA	YES
GGAGACCAUACUGAUACAACCUACUACCUCA	YES
GGAGUGGAUACUAUACAACGUACUAGCUCA	NO
GGAGACCAUACUAUACAACGUACUUCCUCA	YES
GGAGACGAUACUAUACAACCUACUCCUCA	NO
GGAGACCUAUCCAUACAACCUACUACCUCA	YES

--- query ---
Reported pre-steady-state target cleavage rate at or above 0.005? GGAGACCAUACUAUACAACCUCACUACCUCA YES

* * *

System: MILI (PIWIL2) piRISC loaded with L1MC piRNA (26 nt);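 also: 1 nM active piRISC with 0.1 nM target library at 33 °C single turnover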
EXPERIMENT_DESCRIPTION: pre-steady-state target cleavage rate (min^-1); guide: L1MC piRNA 5'p-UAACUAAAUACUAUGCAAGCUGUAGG; higher = faster piRNA-guided slicing of the target
CONDITION_SET: auxiliary factor: 500 nM mouse GTSF1
Recorded pre-steady-state target cleavage rate values for a group of sequences are listed next.
The answer should be written as a number, with no unit following it.

CHAIN_SEQUENCE	pre-steady-state target cleavage rate
UCCUGGAACAGCUUCGUUAGUAUUUAGUUA	0.181
UCCUGGUACAGCUAUGCAUAGUAUUUAGUUA	0.259
UCCUGGAUGAGCUUGGAUAGUAUUUAGUAA	0.178
UCCUCGUACAGCUUGCAUAGUAUUAAGUUA	0.214
UCCUGGAAGAGCUUGCAUAGUAAUUAGUUA	0.177
UCCUGCUACAGCUUGCAUAGUAAUUAGAAA	0.0259
UCCUGGAUCAGCUUGCAUAGAAUUUACUUA	0.021
UCCUGGAUGUGCUUGCAUAGUUAUUUAGUUA	0.0061
UCCUGGAUCAGGAUGCAUAGUAUUUAGAAA	0.0525
UCCUGGAACACCUUGCAUAGUAUAUAGUUA	0.189

Field request: pre-steady-state target cleavage rate | item: UCCUGCUACAGAUUGCAUAGUAUUUAGUUA 0.299

Please give the result for UCCUGGAUGUCGUUGCAUAUUAUUUAGUUA too. 0.0246

Now the sequence UCCUGGUACACCUUGCAUAGUAUUUUGUUA 0.201

Next sequence up: UCCUGGUAGAGCUUGCAUACUAUUUAGUUA 0.0467

Likewise for UCCUGGUACAGCGUGCAUAGUAUUUAGUUA ? 0.225

Can you check UCCUGGAUGUCGUUGCAAAGUAUUAAGUUA next? 0.0094

How about UCCUGGUACAGCAUGCAUAGUAUUUAGAAA ? 0.0581

Entry to check: UCCUGGAUGAGCAUGCAUAGUAUAUAGUUA 0.213

// repeat for UCCUGGAUGUCGAAGCAUAGUAUUUACGUUA and report 0.0359

How about UCCUCCAACAGGUUGCAUAGUAUUUAGUUA ? 0.28

Field entry: UCCUCCUACACCUUGCAUAGUAUUUACAAA 0.127

And what about the sequence UCCUGGAUCACCUUGCAUAGUAAUUAGUUA ? 0.198

Consider next the sequence UCCUCCUACUCCUUGCAUAGUAUUUACAAA in the same way. 0.0842

Record: UCCUGGUAGUCCUUGCAUAGUAUUUUCAAA 0.0125

Now consider UCCUGGAUGUCCUUGCAAUCUAUUUAGUUA and answer again. 0.00463

Another sequence: UCCUGGUACAGCUAGCAUAGUAUUUACUUA 0.0934

Next sequence: UCCUGGUACAGCUUGCAUAGUAUUUAAUUA 0.0793

Again, but for UCCUGGAUGUGCUUGCAUAGUAUUUUAGUUA 0.101

* * *

Tested on: MILI (PIWIL2) piRISC loaded with piRNA #1 (26 nt);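 also: 1 nM active piRISC with 0.1 nM target library at 33 °C single turnover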
EXPERIMENT_DESCRIPTION: pre-steady-state target cleavage rate (min^-1); guide: piRNA #1 5'p-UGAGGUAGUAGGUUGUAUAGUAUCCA; higher = faster piRNA-guided slicing of the target
CONDITION_SET: auxiliary factor: 500 nM mouse GTSF1
Is pre-steady-state target cleavage rate at least 0.03? Then true (1). If not, false (0).

Sample answers from the record:
CHAIN_SEQUENCE	TEST_SYSTEM	CLASS_NAME
GGAGACCUUUCUAUACAACCAACUACCUCA	MILI (PIWIL2) piRISC loaded with piRNA #1 (26 nt)	false (0)
GGAGACCUUUCUAAACAACCUACUACCUCA	MILI (PIWIL2) piRISC loaded with piRNA #1 (26 nt)	true (1)
GGAGACCUAUGUAUACAACCAUACUACCUCA	MILI (PIWIL2) piRISC loaded with piRNA #1 (26 nt)	false (0)
GGAGACCUAUGUAUACAAGCUAGUACCUCA	MILI (PIWIL2) piRISC loaded with piRNA #1 (26 nt)	true (1)
GGAGACCUAUGAUAUGUUGCUACUUCCACA	MILI (PIWIL2) piRISC loaded with piRNA #1 (26 nt)	false (0)
GGAGUGGAUACUCAUACAACCUACUACCUCA	MILI (PIWIL2) piRISC loaded with piRNA #1 (26 nt)	true (1)
GGAGACCAUUCUAUACAACCUACUAGCUCA	MILI (PIWIL2) piRISC loaded with piRNA #1 (26 nt)	true (1)
GGAGACCUAUCUAUACUAGCUACUACCUCA	MILI (PIWIL2) piRISC loaded with piRNA #1 (26 nt)	true (1)

hey, is pre-steady-state target cleavage rate for this one >= 0.03? GGAGAGGAUACUAUACAACCUACAUCCUCA false (0)

Follow-up entry: GGAGACCUAUGUAUACAACCUACCACCUCA true (1)

Now consider GGAGAGGAUACUAAACAACCUUCUACCUCA . false (0)

# iterate: GGAGACCUAUGUAUACAACCUAAUACCUCA false (0)

Field entry: GGAGUGGUUACUAUACAACGUACUACCUCA false (0)

Same again, this time with GGAGACCUAUGUAUCCAACCUACUACCUCA true (1)

* * *

Test system: MILI (PIWIL2) piRISC loaded with piRNA #1 (26 nt);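 also: 1 nM active piRISC with 0.1 nM target library at 33 °C single turnover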
EXPERIMENT_DESCRIPTION: pre-steady-state target cleavage rate (min^-1); guide: piRNA #1 5'p-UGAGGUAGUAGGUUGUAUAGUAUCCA; MIWI and MILI are mouse PIWI proteins and EfPiwi is from a freshwater sponge; tags in brackets are library labels; higher = faster piRNA-guided slicing of the target
CONDITION_SET: auxiliary factor: 500 nM mouse GTSF1
QUANTITY_MEASURED: pre-steady-state target cleavage rate
Lab note: record the figure alone, no unit after it.

Here's what some known entries look like.
CHAIN_SEQUENCE	QUANTITY_MEASURED	OBSERVED
GGAGACCUAACUAUACAACCUACAACCACA	pre-steady-state target cleavage rate	0.0203
GGAGAGGAUUCUAUACAACCUACUACCUCA	pre-steady-state target cleavage rate	0.179
GGAGACCAUACUAGACAACCUACUACCUCA	pre-steady-state target cleavage rate	0.151
GGAGACCAUACAAUACUACCUACUACCUCA	pre-steady-state target cleavage rate	0.158

Quick one: pre-steady-state target cleavage rate of GGAGACGUAACUAUACAACCUACUACCUCA ? 0.166

What do you have for GGAGUGCAUACUAUACAACCUACUACGUCA ? 0.0632

Same question, GGAGACCUAUGAUAACAACCUACUACCGCA this time 0.00318

Moving on to the next sequence: GGAGACCUUACUAUACCACCUACUACCUCA 0.109

Queued: GGAGACCAUACUAUACAACCUACUGCCUCA 0.139

Moving on to the next sequence: GGAGACCUAUCUAUCCAACCUACUACCUCA 0.0742

Same read-out for GGAGUGGAUACUAUACAACCAACUACGUCA ? 0.00435

Now try GGAGACCUAUGUUAACAACCUACUACCUCA . 0.0234

Proceed to GGAGACCUUACAAUACAACCUACUACCUCA 0.146

Also GGAGACCUUACUAUACAACAUACUACCUCA , if possible. 0.0732

Follow-up item: GGAGUGGACUACUAUACAACCUACUACCUCA 0.156

One more sequence: GGAGACCUAUGAUAACAUCCUACAACCUCA 0.00633

Then GGAGACGAUACUAUACAACCUACUAACCUCA ? 0.194

Proceed to GGAGACCUAACAAUACAACCUACAACCUCA 0.0691

Further, for GGAGACCAUACUAUACAACCUACAACGUCA ? 0.0302

Continue with GGAGACCUAACUAUACAACCUACUACCUCG [g2:g21:cont:t1G] 0.189

Record: GGAGACCUUACUAUACAACCAUACUACCUCA 0.0055

Would you mind doing GGAGAGGAUACUAUACAAACCUACUACCUCA as well? 0.00683

Values compiled from the supplement of paper PMC10338343.
